# system: Protein-tyrosine kinase 6 (Homo sapiens) (UniProt Q13882)
# Sequence (Q13882 whole entry, looked up): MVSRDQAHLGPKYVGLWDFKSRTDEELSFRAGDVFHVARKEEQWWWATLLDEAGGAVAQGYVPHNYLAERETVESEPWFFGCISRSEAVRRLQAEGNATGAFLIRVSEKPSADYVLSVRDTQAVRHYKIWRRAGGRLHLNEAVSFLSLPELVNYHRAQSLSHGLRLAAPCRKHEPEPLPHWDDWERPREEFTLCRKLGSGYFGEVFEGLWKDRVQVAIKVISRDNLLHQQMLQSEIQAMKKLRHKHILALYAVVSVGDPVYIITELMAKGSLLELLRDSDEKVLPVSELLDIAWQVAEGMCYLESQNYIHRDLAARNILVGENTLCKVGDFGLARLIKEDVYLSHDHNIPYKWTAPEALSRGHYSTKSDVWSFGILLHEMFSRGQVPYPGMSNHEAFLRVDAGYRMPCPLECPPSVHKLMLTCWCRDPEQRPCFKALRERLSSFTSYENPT
# experimental_conditions: at 1 µM

compound | uom | residual activity
CCC(=O)Nc1ccc2ncnc(Nc3cccc(Br)c3)c2c1 | % | 80
O=[N+]([O-])c1ccc(-c2nc(-c3ccc(F)cc3)c(-c3ccncc3)[nH]2)cc1 | % | 36
CO[C@@H]1[C@H](N(C)C(=O)c2ccccc2)C[C@H]2O[C@]1(C)n1c3ccccc3c3c4c(c5c6ccccc6n2c5c31)C(=O)NC4 | % | 98
CCN(CC)CCCCN1c2ccccc2Oc2ccc(Cl)cc21 | % | 118
COc1cc2ncnc(Nc3ccc(O)c(Br)c3)c2cc1OC | % | 18
CC(C)n1cnc2c(NCc3ccccc3)nc(NCCCO)nc21 | % | 89
CNc1cc2c(Nc3cccc(Br)c3)ncnc2cn1 | % | 69
Oc1c2ccccc2c2c3c(cccc13)N=N2 | % | 95
O=C1NC(=O)c2c1c1c3ccccc3[nH]c1c1[nH]c3cc(Br)ccc3c21 | % | 105
O=C1Nc2ccccc2/C1=C1/Nc2ccccc2/C1=N\OCCC(O)CO (configuration not stated) | % | 56
Cc1ccc(NC2=CC(=O)c3sc(C)nc3C2=O)cc1 | % | 111
Cc1nc(-c2ccccc2)c(-c2ccncc2)o1 | % | 59
O=C1Nc2ccc(Br)cc2/C1=C\c1cc2c([nH]1)CCCC2 | % | 107
CC(=O)c1ccc(N2CCOCC2)cc1O | % | 108
COc1ccc(S(=O)(=O)N(CCO)c2ccccc2CN(C)C/C=C/c2ccc(Cl)cc2)cc1 | % | 100
Cc1cc(Nc2nc(-c3ccccc3)nc3ccccc23)n[nH]1 | % | 40
O=C(Nc1cccc(Nc2cc(Nc3cccc(C(F)(F)F)c3)ncn2)c1)C1CC1 | % | 94
COc1ccc(C(=O)Nc2sc3c(c2C(N)=O)CCCC3)cc1OC | % | 108
O=C1NC(=O)/C(=C/c2ccc3c(c2)OC(F)(F)O3)S1 | % | 110
Nc1cccc(-c2cc3c(Oc4cccc(O)c4)ncnc3[nH]2)c1 | % | 0
COc1cc2ncnc(Nc3ccc(Oc4ccccc4)cc3)c2cc1OC | % | 7
O=C(Nc1cccc(Nc2nccc(Nc3cccc(C(F)(F)F)c3)n2)c1)C1CC1 | % | 40
